# Test system: IGROV-ET
Exam item: assign Criterion met to entries whose GI50 is below 4 µM and Criterion not met to entries at or above 4 µM. Note that a value of exactly 4 µM receives Criterion not met.

{"columns": ["Compound", "Label"],
 "data": [
  ["C/C=C\\[C@H](C)[C@H]1OC1(C)[C@@H](O[Si](C)(C)C(C)(C)C)[C@@H](CO)C(=O)[C@@H](CO)[C@H](O)CC(=O)CC (some centres unmarked) [31b + 31d]", "Criterion not met"],
  ["C/C=C\\[C@H](C)[C@H]1OC1(C)[C@@H](O[Si](C)(C)C(C)(C)C)[C@@H](COC(C)=O)C(=O)[C@H](COC(C)=O)[C@H](O)CC(=O)CC (some centres unmarked)", "Criterion not met"],
  ["C=C(C(=O)[C@H](COC(C)=O)[C@H](O)C1(C)O[C@@H]1[C@@H](C)/C=C\\C)[C@@H](O)CC(=O)CC (some centres unmarked)", "Criterion met"],
  ["C/C=C\\[C@H](C)[C@H]1OC1(C)[C@@H](O[Si](C)(C)C(C)(C)C)[C@@H](CO[Si](C)(C)C(C)(C)C)C(=O)[C@@H](CO[Si](C)(C)C(C)(C)C)[C@@H](CC(=O)CC)O[Si](C)(C)C(C)(C)C (some centres unmarked) [Compound 30b]", "Criterion not met"],
  ["C/C=C\\[C@H](C)[C@H]1OC1(C)[C@@H](O[Si](C)(C)C(C)(C)C)[C@@H](CO[Si](C)(C)C(C)(C)C)C(=O)[C@H](CO[Si](C)(C)C(C)(C)C)[C@H](CC(=O)CC)O[Si](C)(C)C(C)(C)C (some centres unmarked) [Compound 19a]", "Criterion not met"]
]}
